system: Streptococcus pyogenes SSI-9; test: Antibacterial activity assay of bead-derived peptides (three concentrations); format: cell-based; design: key: +++: inhibition by the 640-fold diluted peptide solution; ++: inhibition by the 160-fold diluted solution; +: inhibition by the 40-fold diluted solution; -: no inhibition; conditions: S. pyogenes, bead-derived peptide solution, three concentrations
Where a SMILES comes first, the peptide text is derived from it. [ ]: non-standard residue; d: D form. The star is where a group is joined. NHCH2CH2OH = OCCN*; For = O=C*
reported.property: antibacterial activity

CC(C)C[C@@H](NC(=O)[C@H](C)NC(=O)CNC(=O)[C@@H](NC=O)C(C)C)C(=O)N[C@@H](C)C(=O)N[C@H](CC(C)C)C(=O)N[C@H](C(=O)N[C@@H](C(=O)N[C@@H](Cc1c[nH]c2ccccc12)C(=O)N[C@@H](C(=O)N[C@@H](Cc1c[nH]c2ccccc12)C(=O)N[C@@H](C(=O)N[C@@H](Cc1c[nH]c2ccccc12)C(=O)N[C@H](CC(C)C)C(=O)N[C@@H](Cc1c[nH]c2ccccc12)C(=O)NCCO)C(C)C)C(C)C)C(C)C)C(C)C [compound 12040] (For-VGA[dL]A[dL]V[dV]W[dV]W[dV]W[dL]W-NHCH2CH2OH); +
CC(C)C[C@@H](NC(=O)[C@H](Cc1c[nH]c2ccccc12)NC(=O)[C@@H](CC(C)C)NC(=O)[C@H](Cc1c[nH]c2ccccc12)NC(=O)[C@H](NC(=O)[C@H](Cc1c[nH]c2ccccc12)NC(=O)[C@@H](CC(C)C)NC(=O)[C@@H](NC(=O)[C@H](NC(=O)[C@H](C)NC(=O)[C@H](NC(=O)[C@H](C)NC(=O)CNC(=O)[C@@H](NC=O)C(C)C)[C@H](C)O)C(C)C)C(C)C)C(C)C)C(=O)N[C@@H](Cc1c[nH]c2ccccc12)C(=O)NCCO [compound 8827] (For-VGA[dT]A[dV]V[dL]W[dV]W[dL]W[dL]W-NHCH2CH2OH); -
CNC(=O)C[C@@H](NC(=O)[C@@H](NC(=O)[C@H](NC(=O)[C@H](C)NC(=O)[C@H](NC(=O)[C@H](C)NC(=O)CNC(=O)[C@@H](NC=O)C(C)C)C(C)C)C(C)C)C(C)C)C(=O)N[C@@H](Cc1c[nH]c2ccccc12)C(=O)N[C@H](CC(C)C)C(=O)N[C@@H](Cc1c[nH]c2ccccc12)C(=O)N[C@H](CC(C)C)C(=O)N[C@@H](Cc1c[nH]c2ccccc12)C(=O)N[C@H](CC(C)C)C(=O)N[C@@H](Cc1c[nH]c2ccccc12)C(=O)NCCO [compound 8982] (For-VGA[dV]A[dV]V[dD](NHMe)W[dL]W[dL]W[dL]W-NHCH2CH2OH); -
CC(C)C[C@@H](NC(=O)[C@H](Cc1c[nH]c2ccccc12)NC(=O)[C@@H](CC(C)C)NC(=O)[C@H](Cc1c[nH]c2ccccc12)NC(=O)[C@H](NC(=O)[C@H](Cc1c[nH]c2ccccc12)NC(=O)[C@@H](CC(C)C)NC(=O)[C@@H](NC(=O)[C@H](NC(=O)[C@H](C)NC(=O)[C@H](NC(=O)[C@H](C)NC(=O)CNC(=O)[C@@H](NC=O)C(C)C)C(C)C)[C@H](C)O)C(C)C)C(C)C)C(=O)N[C@@H](Cc1c[nH]c2ccccc12)C(=O)NCCO [compound 2085] (For-VGA[dV]A[dT]V[dL]W[dV]W[dL]W[dL]W-NHCH2CH2OH); -

* * *

Reported cell viability/% by item:
system: P388 mouse leukemia cells; conditions: 92 h
Where a SMILES comes first, the peptide text is derived from it. [ ]: non-standard residue; d: D form. The star is where a group is joined. NHCH2CH2OH = OCCN*; For = O=C*
Quick reminder: number only, in %, skip the unit.

CC(C)C[C@@H](NC(=O)[C@H](C)NC(=O)CNC(=O)[C@@H](NC=O)C(C)C)C(=O)N[C@@H](C)C(=O)N[C@H](CC(C)C)C(=O)N[C@H](C(=O)N[C@@H](C(=O)N[C@@H](Cc1c[nH]c2ccccc12)C(=O)N[C@@H](C(=O)N[C@@H](Cc1c[nH]c2ccccc12)C(=O)N[C@H](CC(C)C)C(=O)N[C@@H](Cc1c[nH]c2ccccc12)C(=O)N[C@H](CC(C)C)C(=O)N[C@@H](Cc1c[nH]c2ccccc12)C(=O)NCCO)[C@H](C)O)C(C)C)C(C)C [compound 8342] (For-VGA[dL]A[dL]V[dV]W[dT]W[dL]W[dL]W-NHCH2CH2OH); 54.5

Attention now shifts to the item below.
Quick check: cell viability/% of CC(C)C[C@@H](NC(=O)[C@H](C)NC(=O)[C@H](NC(=O)[C@H](C)NC(=O)CNC(=O)[C@@H](NC=O)C(C)C)C(C)C)C(=O)N[C@H](C(=O)N[C@@H](C(=O)N[C@@H](Cc1c[nH]c2ccccc12)C(=O)N[C@@H](C(=O)N[C@@H](Cc1c[nH]c2ccccc12)C(=O)N[C@H](CC(C)C)C(=O)N[C@@H](Cc1c[nH]c2ccccc12)C(=O)N[C@H](CC(C)C)C(=O)N[C@@H](Cc1c[nH]c2ccccc12)C(=O)NCCO)[C@H](C)O)[C@H](C)O)C(C)C [compound 10517] (For-VGA[dV]A[dL]V[dT]W[dT]W[dL]W[dL]W-NHCH2CH2OH) ? 100.0

* * *

conditions: cell viability/%
Where a SMILES comes first, the peptide text is derived from it. [ ]: non-standard residue; d: D form. The star is where a group is joined. NHCH2CH2OH = OCCN*; For = O=C*
reported.property: viability (%)
Record the value in %, omitting the unit from your answer.

What does the record list as viability for CC(C)C[C@@H](NC(=O)[C@H](Cc1c[nH]c2ccccc12)NC(=O)[C@@H](CC(C)C)NC(=O)[C@H](Cc1c[nH]c2ccccc12)NC(=O)[C@@H](CC(C)C)NC(=O)[C@H](Cc1c[nH]c2ccccc12)NC(=O)[C@H](NC(=O)[C@@H](NC(=O)[C@H](NC(=O)[C@H](C)NC(=O)[C@H](NC(=O)[C@H](C)NC(=O)CNC(=O)[C@@H](NC=O)C(C)C)C(C)C)[C@H](C)O)C(C)C)C(C)C)C(=O)N[C@@H](Cc1c[nH]c2ccccc12)C(=O)NCCO [compound 13151] (For-VGA[dV]A[dT]V[dV]W[dL]W[dL]W[dL]W-NHCH2CH2OH) ? 100

* * *

system: P388 mouse leukemia cells; conditions: 92 h
Where a SMILES comes first, the peptide text is derived from it. [ ]: non-standard residue; d: D form. The star is where a group is joined. NHCH2CH2OH = OCCN*; For = O=C*
reported.property: cell viability/%

Quick one: cell viability/% of CC(C)C[C@@H](NC(=O)[C@H](C)NC(=O)CNC(=O)[C@@H](NC=O)C(C)C)C(=O)N[C@@H](C)C(=O)N[C@@H](C(=O)N[C@H](C(=O)N[C@@H](C(=O)N[C@@H](Cc1c[nH]c2ccccc12)C(=O)N[C@@H](C(=O)N[C@@H](Cc1c[nH]c2ccccc12)C(=O)N[C@H](CC(C)C)C(=O)N[C@@H](Cc1c[nH]c2ccccc12)C(=O)N[C@@H](C(=O)N[C@@H](Cc1c[nH]c2ccccc12)C(=O)NCCO)C(C)C)C(C)C)[C@H](C)O)C(C)C)C(C)C [compound 4427] (For-VGA[dL]A[dV]V[dT]W[dV]W[dL]W[dV]W-NHCH2CH2OH) ? 100.0%

* * *

tested on: P388 mouse leukemia cells; conditions: 92 h
Where a SMILES comes first, the peptide text is derived from it. [ ]: non-standard residue; d: D form. The star is where a group is joined. NHCH2CH2OH = OCCN*; For = O=C*
reported.property: cell viability/% (%)
The response must be a number in % with no trailing unit.

Which cell viability/% reading was recorded for the molecule CC(C)C[C@@H](NC(=O)[C@H](C)NC(=O)[C@H](NC(=O)[C@H](C)NC(=O)CNC(=O)[C@@H](NC=O)C(C)C)[C@H](C)O)C(=O)N[C@H](C(=O)N[C@H](CC(C)C)C(=O)N[C@@H](Cc1c[nH]c2ccccc12)C(=O)N[C@@H](C(=O)N[C@@H](Cc1c[nH]c2ccccc12)C(=O)N[C@@H](C(=O)N[C@@H](Cc1c[nH]c2ccccc12)C(=O)N[C@H](CC(C)C)C(=O)N[C@@H](Cc1c[nH]c2ccccc12)C(=O)NCCO)C(C)C)C(C)C)C(C)C [compound 9145] (For-VGA[dT]A[dL]V[dL]W[dV]W[dV]W[dL]W-NHCH2CH2OH) ? 70.9

* * *

tested on: P388 mouse leukemia cells; settings: 92 h
Where a SMILES comes first, the peptide text is derived from it. [ ]: non-standard residue; d: D form. The star is where a group is joined. NHCH2CH2OH = OCCN*; For = O=C*
Recorded cell viability/%, one value per entry.
Write the figure, then the unit, nothing else.

CC(C)C[C@@H](NC(=O)[C@H](Cc1c[nH]c2ccccc12)NC(=O)[C@@H](CC(C)C)NC(=O)[C@@H](NC(=O)[C@H](NC(=O)[C@H](C)NC(=O)[C@H](NC(=O)[C@H](C)NC(=O)CNC(=O)[C@@H](NC=O)C(C)C)[C@H](C)O)C(C)C)C(C)C)C(=O)N[C@@H](Cc1c[nH]c2ccccc12)C(=O)N[C@H](CC(C)C)C(=O)N[C@@H](Cc1c[nH]c2ccccc12)C(=O)N[C@@H](C(=O)N[C@@H](Cc1c[nH]c2ccccc12)C(=O)NCCO)C(C)C [compound 94] (For-VGA[dT]A[dV]V[dL]W[dL]W[dL]W[dV]W-NHCH2CH2OH); 100.0%
CC(C)C[C@@H](NC(=O)[C@H](Cc1c[nH]c2ccccc12)NC(=O)[C@H](NC(=O)[C@H](Cc1c[nH]c2ccccc12)NC(=O)[C@@H](CC(C)C)NC(=O)[C@H](Cc1c[nH]c2ccccc12)NC(=O)[C@H](NC(=O)[C@@H](NC(=O)[C@H](NC(=O)[C@H](C)NC(=O)[C@H](NC(=O)[C@H](C)NC(=O)CNC(=O)[C@@H](NC=O)C(C)C)C(C)C)C(C)C)C(C)C)C(C)C)C(C)C)C(=O)N[C@@H](Cc1c[nH]c2ccccc12)C(=O)NCCO [compound 2994] (For-VGA[dV]A[dV]V[dV]W[dL]W[dV]W[dL]W-NHCH2CH2OH); 6.3%
CC(C)C[C@@H](NC(=O)[C@H](C)NC(=O)CNC(=O)[C@@H](NC=O)C(C)C)C(=O)N[C@@H](C)C(=O)N[C@H](CC(C)C)C(=O)N[C@H](C(=O)N[C@@H](C(=O)N[C@@H](Cc1c[nH]c2ccccc12)C(=O)N[C@@H](C(=O)N[C@@H](Cc1c[nH]c2ccccc12)C(=O)N[C@H](CC(C)C)C(=O)N[C@@H](Cc1c[nH]c2ccccc12)C(=O)N[C@H](CC(C)C)C(=O)N[C@@H](Cc1c[nH]c2ccccc12)C(=O)NCCO)C(C)C)[C@H](C)O)C(C)C [compound 10710] (For-VGA[dL]A[dL]V[dT]W[dV]W[dL]W[dL]W-NHCH2CH2OH); 100.0%

Now look at this one.
Param item = CC(C)C[C@@H](NC(=O)[C@H](C)NC(=O)[C@H](NC(=O)[C@H](C)NC(=O)CNC(=O)[C@@H](NC=O)C(C)C)[C@H](C)O)C(=O)N[C@H](C(=O)N[C@H](CC(C)C)C(=O)N[C@@H](Cc1c[nH]c2ccccc12)C(=O)N[C@H](CC(C)C)C(=O)N[C@@H](Cc1c[nH]c2ccccc12)C(=O)N[C@@H](C(=O)N[C@@H](Cc1c[nH]c2ccccc12)C(=O)N[C@H](CC(C)C)C(=O)N[C@@H](Cc1c[nH]c2ccccc12)C(=O)NCCO)C(C)C)C(C)C [compound 1516] (For-VGA[dT]A[dL]V[dL]W[dL]W[dV]W[dL]W-NHCH2CH2OH) ; retrieve measured cell viability/%. 100.0%
